Data credit: patent US20240317736A1

Assay: Pharmacokinetic test in rats
Assay type: in vivo
Details: male, SD, rat, plasma, PO 5 mg/kg, read-out: C0 or Cmax
Catalogue of Cmax values

{"columns": ["GIVEN_SMILES", "Cmax / ng/mL"],
 "data": [
  ["[2H]c1c([2H])c(-c2nc(N(c3c(CC)nn4cc(F)c(N5CCN(CC(=O)N6CC(O)C6)CC5)cc34)C([2H])([2H])[2H])sc2C#N)c([2H])c([2H])c1F", 234],
  ["[2H]C([2H])([2H])C([2H])([2H])c1nn2cc(F)c(N3CCN(CC(=O)N4CC(O)C4)CC3)cc2c1N(C)c1nc(-c2ccc(F)cc2)c(C#N)s1", 181],
  ["[2H]C([2H])([2H])N(c1nc(-c2ccc(F)cc2)c(C#N)s1)c1c(C([2H])([2H])C([2H])([2H])[2H])nn2cc(F)c(N3CCN(CC(=O)N4CC(O)C4)CC3)cc12", 297],
  ["[2H]c1c([2H])c(-c2nc(N(C)c3c(CC)nn4cc(F)c(N5CCN(CC(=O)N6CC(O)C6)CC5)cc34)sc2C#N)c([2H])c([2H])c1F", 399]
]}
